Below, each entry is listed with its recorded R_(ABT-263), % of FRET signal left with 20 uM ABT-263.
targetSystem: T1, mCerulean3-Bcl-2 (human, UniProt P10415 1-239)
T1 construct: Bcl-2, human; GGS linker between mCerulean3 and Bcl-2; also called ^CBcl-2; ^cBcl-2; source: MCF-7, stably transfected clone, in live cells; not shown: mCerulean3, N-terminal, kept
T1 sequence (P10415 whole entry): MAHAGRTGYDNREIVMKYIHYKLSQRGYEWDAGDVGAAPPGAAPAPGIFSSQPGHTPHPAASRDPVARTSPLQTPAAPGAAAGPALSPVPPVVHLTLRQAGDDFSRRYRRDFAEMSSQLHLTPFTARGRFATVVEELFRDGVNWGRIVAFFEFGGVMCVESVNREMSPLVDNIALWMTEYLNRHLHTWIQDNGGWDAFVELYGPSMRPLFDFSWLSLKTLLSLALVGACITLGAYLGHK
procedureText: FRET or BRET; FLIM-FRET in live MCF-7 cells: mCer3-Bcl-XL or mCer3-Bcl-2 stably expressed (donor), Venus-BH3 protein transiently expressed (acceptor); binding curves of FLIM-FRET efficiency against the Venus:mCer3 intensity ratio, 25 C; untreated, DMSO, 20 uM ABT-263 (18-24 h) or 1.25-20 uM A-1155463, A-1331852, ABT-263; R values interpolated at ratio 0.5 (Bcl-XL) or 0.25 (Bcl-2), ^VBad4E signal subtracted
settings: partners not purified
Note: unit % is implicit; provide only the numeric part.

Below, 2 binders whose answers are already recorded.
Venus-BimEL-I146Y-L185E (natural protein, mouse, UniProt O54918-1 1-196, looked up, BimEL, mouse; also called ^vBimEL-I146Y-L185E; source: MCF-7, transiently transfected, in live cells; not shown: Venus, N-terminal, kept) MAKQPSDVSSECDREGGQLQPAERPPQLRPGAPTSLQTEPQGNPDGEGDRCPHGSPQGPLAPPASPGPFATRSPLFIFVRRSSLLSRSSSGYFSFDTDRSPAPMSCDKSTQTPSPPCQAFNHYLSAMASIRQSQEEPEDLRPEIRYAQELRRIGDEFNETYTRRVFANDYREAEDHPQMVILQLERFIFRLVWRRH | 36.9
Venus-BimEL-L185E (natural protein, mouse, UniProt O54918-1 1-196, looked up, BimEL, mouse; also called ^VBimEL-L185E; ^vBimEL-L185E; source: MCF-7, transiently transfected, in live cells; not shown: Venus, N-terminal, kept) MAKQPSDVSSECDREGGQLQPAERPPQLRPGAPTSLQTEPQGNPDGEGDRCPHGSPQGPLAPPASPGPFATRSPLFIFVRRSSLLSRSSSGYFSFDTDRSPAPMSCDKSTQTPSPPCQAFNHYLSAMASIRQSQEEPEDLRPEIRIAQELRRIGDEFNETYTRRVFANDYREAEDHPQMVILQLERFIFRLVWRRH | 51

Now for another entry.
Lookup: Which measured R_(ABT-263), % of FRET signal left with 20 uM ABT-263 value corresponds to Venus-BimEL-I146Y (natural protein, mouse, UniProt O54918-1 1-196, looked up, BimEL, mouse; also called ^vBimEL-I146Y; source: MCF-7, transiently transfected, in live cells; not shown: Venus, N-terminal, kept) MAKQPSDVSSECDREGGQLQPAERPPQLRPGAPTSLQTEPQGNPDGEGDRCPHGSPQGPLAPPASPGPFATRSPLFIFVRRSSLLSRSSSGYFSFDTDRSPAPMSCDKSTQTPSPPCQAFNHYLSAMASIRQSQEEPEDLRPEIRYAQELRRIGDEFNETYTRRVFANDYREAEDHPQMVILQLLRFIFRLVWRRH ?
Found: 65.3
